Test system: LG0567-F671-PDC KRAS tumor spheroid viability
method-notes: Anticancer human tumor LG0567-F671-PDC patient-derived lung adenocarcinoma cell line growth inhibition [KRAS2]
condition-context: second compound 0.1 µM; first compound 0.1 µM; active compounds read low; spheroids with HUVEC and MSC
viability, T/C strictly under 50% means class 1; at 50% or over means class 0.

[in] Does the reported viability, T/C of the following compound sit strictly below 50%? COc1cc(Nc2ncc3c(n2)-c2ccc(Cl)cc2C(c2c(F)cccc2OC)=NC3)ccc1C(=O)O + CNCc1ccccc1-c1csc(C(C)Nc2nc(C)nc3cc(OC)c(OC)cc23)c1
[out] class 0

[in] Does the reported viability, T/C of the following compound sit strictly below 50%? CC(C)NCC(C(=O)N1CCN(c2ncnc3c2C(C)CC3O)CC1)c1ccc(Cl)cc1 (stereo unspecified) + C=CC(=O)N1CCN(c2nc(OCC3CCCN3C)nc3c2CCN(c2cccc4cccc(C)c24)C3)CC1CC#N
[out] class 1

[in] Does the reported viability, T/C of the following compound sit strictly below 50%? CC(C)n1nc(-c2ccc3oc(N)nc3c2)c2c(N)ncnc21 + CNCc1ccccc1-c1csc(C(C)Nc2nc(C)nc3cc(OC)c(OC)cc23)c1
[out] class 1

[in] Does the reported viability, T/C of the following compound sit strictly below 50%? Cn1ncnc1[C@H]1c2n[nH]c(=O)c3cc(F)cc(c23)N[C@@H]1c1ccc(F)cc1 + CNCc1ccccc1-c1csc(C(C)Nc2nc(C)nc3cc(OC)c(OC)cc23)c1
[out] class 0

[in] Does the reported viability, T/C of the following compound sit strictly below 50%? CCN1CCN(Cc2ccc(Nc3ncc(F)c(-c4cc(F)c5nc(C)n(C(C)C)c5c4)n3)nc2)CC1 + COc1cc2nc(C)nc(NC(C)c3cc(N)cc(C(F)(F)F)c3)c2cc1OC1CCOC1
[out] class 0

[in] Does the reported viability, T/C of the following compound sit strictly below 50%? CC1OCC2(CCN(c3cnc(Sc4ccnc(N)c4Cl)c(N)n3)CC2)C1N (stereo unspecified) + CNCc1ccccc1-c1csc(C(C)Nc2nc(C)nc3cc(OC)c(OC)cc23)c1
[out] class 1

====

Exercise: state measured viability, T/C for each of the molecules provided.
Tested on: LG0567-F671-PDC KRAS tumor spheroid viability
method-notes: Anticancer human tumor LG0567-F671-PDC cell line growth inhibition [KRAS2];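 also: drug exposure lasted seven days after spheroids formed for three days; 100% = DMSO vehicle control viability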
condition-context: second compound 1 µM; first compound 0.1 µM; active compounds read low; spheroids with HUVEC and MSC
From the text: Multicellular complex tumor spheroid response to RAS pathway inhibitors in combination with a targeted agents in patient-derived cell lines with oncogenic KRAS variants from multiple cancer types A high-throughput screen of multi-cell type tumor spheroids was designed to identify active combinations of targeted small molecules and KRAS pathway inhibitors. […] Compounds. […] If the clinical Cmax for an agent had not been determined, the highest concentration tested was 10 microM. […]
A number alone suffices; assume %.

Short answer on LG0567-F671-PDC KRAS tumor spheroid viability for CC1COCCN1c1cc(-c2ccnn2C)c2ccnc(-c3ccn[nH]3)c2n1 (stereo not given) + C=CC(=O)N1CCN(c2nc(OCC3CCCN3C)nc3c2CCN(c2cccc4cccc(C)c24)C3)CC1CC#N , viability, T/C: 16.7

Short answer on LG0567-F671-PDC KRAS tumor spheroid viability for COc1cc2nccc(Oc3ccc(NC(=O)C4(C(=O)Nc5ccc(F)cc5)CC4)cc3)c2cc1OC + C=CC(=O)N1CCN(c2nc(=O)n(-c3c(C)ccnc3C(C)C)c3nc(-c4c(O)cccc4F)c(F)cc23)C(C)C1 , viability, T/C: 23.9

Short answer on LG0567-F671-PDC KRAS tumor spheroid viability for CCN1CCN(Cc2ccc(Nc3ncc(F)c(-c4cc(F)c5nc(C)n(C(C)C)c5c4)n3)nc2)CC1 + C=CC(=O)N1CCN(c2nc(OCC3CCCN3C)nc3c2CCN(c2cccc4cccc(C)c24)C3)CC1CC#N , viability, T/C: 21.8

Short answer on LG0567-F671-PDC KRAS tumor spheroid viability for CN(C)C/C=C/C(=O)Nc1cc2c(Nc3ccc(F)c(Cl)c3)ncnc2cc1O[C@H]1CCOC1 + CC1OCC2(CCN(c3cnc(Sc4ccnc(N)c4Cl)c(N)n3)CC2)C1N , viability, T/C: 69.3

Short answer on LG0567-F671-PDC KRAS tumor spheroid viability for COC(=O)c1ccc2c(C(=Nc3ccc(N(C)C(=O)CN4CCN(C)CC4)cc3)c3ccccc3)c(O)[nH]c2c1 + CC1OCC2(CCN(c3cnc(Sc4ccnc(N)c4Cl)c(N)n3)CC2)C1N , viability, T/C: 23.4

====

Test system: LG0567-F671-PDC KRAS tumor spheroid viability
method-notes: Anticancer human tumor LG0567-F671-PDC cell line growth inhibition [KRAS2];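 also: drug exposure lasted seven days after spheroids formed for three days; 100% = DMSO vehicle control viability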
condition-context: second compound 0.1 µM; first compound 0.316 µM; active compounds read low; spheroids with HUVEC and MSC
observation-type: viability, T/C (%)
A number alone suffices; assume %.

// sample CC(C)NCC(C(=O)N1CCN(c2ncnc3c2C(C)CC3O)CC1)c1ccc(Cl)cc1 (stereo unspecified) + C=CC(=O)N1CCN(c2nc(=O)n(-c3c(C)ccnc3C(C)C)c3nc(-c4c(O)cccc4F)c(F)cc23)C(C)C1 , its viability, T/C was 19.8

// sample CC1OCC2(CCN(c3cnc(Sc4ccnc(N)c4Cl)c(N)n3)CC2)C1N (stereo unspecified) + CNCc1ccccc1-c1csc(C(C)Nc2nc(C)nc3cc(OC)c(OC)cc23)c1 , its viability, T/C was 33.3

// sample Cn1nccc1Nc1nccc(-c2cc3c(s2)C(C)(C)N(CCN2CCOCC2)C3=O)n1 + COc1cc2nc(C)nc(NC(C)c3cc(N)cc(C(F)(F)F)c3)c2cc1OC1CCOC1 , its viability, T/C was 55.3

// sample COc1cc(Nc2ncc3c(n2)-c2ccc(Cl)cc2C(c2c(F)cccc2OC)=NC3)ccc1C(=O)O + CC1OCC2(CCN(c3cnc(Sc4ccnc(N)c4Cl)c(N)n3)CC2)C1N , its viability, T/C was 45.7

// sample CC1OCC2(CCN(c3cnc(Sc4ccnc(N)c4Cl)c(N)n3)CC2)C1N (stereo unspecified) + COc1cc2nc(C)nc(NC(C)c3cc(N)cc(C(F)(F)F)c3)c2cc1OC1CCOC1 , its viability, T/C was 30.6

// sample CC1COCCN1c1cc(-c2ccnn2C)c2ccnc(-c3ccn[nH]3)c2n1 (stereo unspecified) + CC1OCC2(CCN(c3cnc(Sc4ccnc(N)c4Cl)c(N)n3)CC2)C1N , its viability, T/C was 36.3

// sample CC1(C)CCC(CN2CCN(c3ccc(C(=O)NS(=O)(=O)c4ccc(NCC5CCOCC5)c([N+](=O)[O-])c4)c(Oc4cnc5[nH]ccc5c4)c3)CC2)=C(c2ccc(Cl)cc2)C1 + C=CC(=O)N1CCN(c2nc(OCC3CCCN3C)nc3c2CCN(c2cccc4cccc(C)c24)C3)CC1CC#N , its viability, T/C was 29.7

// sample CCNC(=O)CC1N=C(c2ccc(Cl)cc2)c2cc(OC)ccc2-n2c(C)nnc21 (stereo unspecified) + CNCc1ccccc1-c1csc(C(C)Nc2nc(C)nc3cc(OC)c(OC)cc23)c1 , its viability, T/C was 66.1

// sample O=C(c1cc(Cc2n[nH]c(=O)c3ccccc23)ccc1F)N1CCN(C(=O)C2CC2)CC1 + COc1cc2nc(C)nc(NC(C)c3cc(N)cc(C(F)(F)F)c3)c2cc1OC1CCOC1 , its viability, T/C was 81.8

// sample COc1cc(Nc2ncc3c(n2)-c2ccc(Cl)cc2C(c2c(F)cccc2OC)=NC3)ccc1C(=O)O + COc1cc2nc(C)nc(NC(C)c3cc(N)cc(C(F)(F)F)c3)c2cc1OC1CCOC1 , its viability, T/C was 60.9

// sample CCNC(=O)CC1N=C(c2ccc(Cl)cc2)c2cc(OC)ccc2-n2c(C)nnc21 (stereo unspecified) + COc1cc2nc(C)nc(NC(C)c3cc(N)cc(C(F)(F)F)c3)c2cc1OC1CCOC1 , its viability, T/C was 61.6

====

System: LG0567-F671-PDC KRAS tumor spheroid viability
method-notes: Anticancer human tumor LG0567-F671-PDC cell line growth inhibition [KRAS2];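 also: drug exposure lasted seven days after spheroids formed for three days; 100% = DMSO vehicle control viability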
condition-context: compound 0.1 µM; active compounds read low; spheroids with HUVEC and MSC
Exercise: state measured viability, T/C for each of the compounds provided.

Short answer on LG0567-F671-PDC KRAS tumor spheroid viability for COc1cc2nccc(Oc3ccc(NC(=O)C4(C(=O)Nc5ccc(F)cc5)CC4)cc3)c2cc1OC , viability, T/C: 78.3% [middle of 5 runs]

Short answer on LG0567-F671-PDC KRAS tumor spheroid viability for CC1(C)CCC(CN2CCN(c3ccc(C(=O)NS(=O)(=O)c4ccc(NCC5CCOCC5)c([N+](=O)[O-])c4)c(Oc4cnc5[nH]ccc5c4)c3)CC2)=C(c2ccc(Cl)cc2)C1 , viability, T/C: 94.7% [middle of 5 runs]

Short answer on LG0567-F671-PDC KRAS tumor spheroid viability for CN(C)C/C=C/C(=O)Nc1cc2c(Nc3ccc(F)c(Cl)c3)ncnc2cc1O[C@H]1CCOC1 , viability, T/C: 60.7% [middle of 5 runs]

Short answer on LG0567-F671-PDC KRAS tumor spheroid viability for CC1OCC2(CCN(c3cnc(Sc4ccnc(N)c4Cl)c(N)n3)CC2)C1N (stereo unspecified) , viability, T/C: 56.3% [middle of 20 runs]

Short answer on LG0567-F671-PDC KRAS tumor spheroid viability for Cn1ncnc1[C@H]1c2n[nH]c(=O)c3cc(F)cc(c23)N[C@@H]1c1ccc(F)cc1 , viability, T/C: 90.9% [middle of 5 runs]

Short answer on LG0567-F671-PDC KRAS tumor spheroid viability for C=CC(=O)N1CCN(c2nc(OCC3CCCN3C)nc3c2CCN(c2cccc4cccc(C)c24)C3)CC1CC#N (stereo unspecified) , viability, T/C: 31.3% [middle of 16 runs]
